Species: Homo sapiens
Assay: Inhibition of human recombinant DNA topoisomerase 2 assessed as reduction in enzyme-mediated relaxation of supercoiled pBR322 plasmid DNA at 20 uM in presence of 0.1% BSA by ethidium bromide staining based gel electrophoresis and UV spectroscopy relative to etoposide
EXPERIMENTAL_READOUT: fold change (FC)

Clc1cccc(-c2cc(-c3cccs3)c3oc4ccccc4c3n2)c1    0.47
Clc1ccccc1-c1cc(-c2cccs2)c2oc3ccccc3c2n1    0.29
Clc1ccccc1-c1cc(-c2ccsc2)c2oc3ccccc3c2n1    2.33
Clc1ccccc1-c1cc(-c2ccoc2)c2oc3ccccc3c2n1    0.46

a = Clc1ccc(-c2cc(-c3ccc(Cl)o3)c3oc4ccccc4c3n2)cc1
b = Clc1cccc(-c2cc(-c3ccco3)c3oc4ccccc4c3n2)c1
I need your help: which of the pair a , b has higher fold change (FC)? Response format: the label of the selected entry.
a
(a: 2.34, b: 1.51)

====

Species on record: Homo sapiens
Assay: Inhibition of human recombinant DNA topoisomerase 2 assessed as reduction in enzyme-mediated relaxation of supercoiled pBR322 plasmid DNA at 100 uM in presence of 0.1% BSA by ethidium bromide staining based gel electrophoresis and UV spectroscopy
EXPERIMENTAL_READOUT: inhibition (%)

Clc1ccccc1-c1cc(-c2ccco2)c2oc3ccccc3c2n1    59.4

P = Clc1ccccc1-c1cc(-c2cccs2)c2oc3ccccc3c2n1
Q = Clc1ccccc1-c1cc(-c2ccsc2)c2oc3ccccc3c2n1
Could you determine which record has the numerically smaller inhibition? Candidates: P and Q Response format: the label of the selected entry.
P
(P: 64.1%, Q: 100%)

====

Species on record: Homo sapiens
Assay: Inhibition of human recombinant DNA topoisomerase 2 assessed as reduction in enzyme-mediated relaxation of supercoiled pBR322 plasmid DNA at 100 uM in presence of 0.1% BSA by ethidium bromide staining based gel electrophoresis and UV spectroscopy relative to etoposide
EXPERIMENTAL_READOUT: fold change (FC)

Clc1cccc(-c2cc(-c3ccco3)c3oc4ccccc4c3n2)c1    1.3
Clc1cccc(-c2cc(-c3ccc(Cl)o3)c3oc4ccccc4c3n2)c1    1.86
Clc1ccccc1-c1cc(-c2ccco2)c2oc3ccccc3c2n1    0.9
Clc1cccc(-c2cc(-c3ccoc3)c3oc4ccccc4c3n2)c1    1.65
Clc1ccc(-c2cc(-c3ccoc3)c3oc4ccccc4c3n2)cc1    1.7

P = Clc1cccc(-c2cc(-c3ccccc3)c3oc4ccccc4c3n2)c1
Q = Clc1ccc(-c2cc(-c3ccc(Cl)o3)c3oc4ccccc4c3n2)cc1
Could you determine which record has the numerically smaller fold change (FC)? Candidates: P and Q Response format: the label of the selected entry.
P
(P: 1.26, Q: 1.91)

a = Clc1ccc(-c2cc(-c3ccco3)c3oc4ccccc4c3n2)cc1
b = Clc1ccccc1-c1cc(-c2cccs2)c2oc3ccccc3c2n1
I need your help: which of the pair a , b has higher fold change (FC)? Response format: the label of the selected entry.
a
(a: 1.46, b: 0.97)

A = Clc1ccc(-c2cc(-c3ccccc3)c3oc4ccccc4c3n2)cc1
B = Clc1cccc(-c2cc(-c3ccsc3)c3oc4ccccc4c3n2)c1
Could you determine which record has the numerically smaller fold change (FC)? Candidates: A and B Response format: the label of the selected entry.
A

====

Target: UniProtKB P11387
Sequence (P11387 whole entry): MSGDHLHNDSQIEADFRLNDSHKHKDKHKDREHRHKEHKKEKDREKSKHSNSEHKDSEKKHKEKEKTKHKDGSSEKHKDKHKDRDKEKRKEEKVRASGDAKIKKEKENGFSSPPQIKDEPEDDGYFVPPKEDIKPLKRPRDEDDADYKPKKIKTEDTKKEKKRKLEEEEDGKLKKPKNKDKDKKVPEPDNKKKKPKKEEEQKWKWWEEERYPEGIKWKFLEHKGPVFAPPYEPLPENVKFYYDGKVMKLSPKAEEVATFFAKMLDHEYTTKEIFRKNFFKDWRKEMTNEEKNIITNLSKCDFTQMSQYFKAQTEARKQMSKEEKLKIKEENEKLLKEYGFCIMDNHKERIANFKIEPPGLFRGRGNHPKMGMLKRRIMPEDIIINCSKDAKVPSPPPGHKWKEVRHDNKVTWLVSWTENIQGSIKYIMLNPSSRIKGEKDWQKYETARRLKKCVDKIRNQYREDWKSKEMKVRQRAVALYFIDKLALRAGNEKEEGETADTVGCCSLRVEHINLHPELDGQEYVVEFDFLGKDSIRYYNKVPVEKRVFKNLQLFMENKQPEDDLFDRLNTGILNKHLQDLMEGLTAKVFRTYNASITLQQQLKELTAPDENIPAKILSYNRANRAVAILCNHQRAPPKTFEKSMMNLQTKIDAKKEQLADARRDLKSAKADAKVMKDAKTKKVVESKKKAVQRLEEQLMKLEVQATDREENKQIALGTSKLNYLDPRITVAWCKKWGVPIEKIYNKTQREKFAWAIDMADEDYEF
Assay: Inhibition of human recombinant DNA topoisomerase 1 assessed as reduction in enzyme-mediated relaxation of supercoiled pBR322 plasmid DNA at 100 uM in presence of 0.1% BSA by ethidium bromide staining based gel electrophoresis and UV spectroscopy relative to camptothecin
EXPERIMENTAL_READOUT: fold change (FC)

Worked cases, fold change (FC) given:
Clc1ccc(-c2cc(-c3ccc(Cl)o3)c3oc4ccccc4c3n2)cc1    0.81
Clc1cccc(-c2cc(-c3ccccc3)c3oc4ccccc4c3n2)c1    0.93
Clc1ccccc1-c1cc(-c2cccs2)c2oc3ccccc3c2n1    1.08
Clc1ccc(-c2cc(-c3ccccc3)c3oc4ccccc4c3n2)cc1    1.15
Clc1cccc(-c2cc(-c3ccoc3)c3oc4ccccc4c3n2)c1    0.97

a = Clc1ccc(-c2cc(-c3ccco3)c3oc4ccccc4c3n2)cc1
b = Clc1ccccc1-c1cc(-c2ccccc2)c2oc3ccccc3c2n1
I need your help: which of the pair a , b has higher fold change (FC)? Response format: the label of the selected entry.
a
(a: 1.15, b: 0.38)
